Assay: Beta-carotene assay
Conditions: 5 mMole/liter in 1-octanol
readout_kind: Antioxidant properties: Beta-carotene assay

# count of solved cases: 7
Looking up O=C(O)c1cc(O)c(O)c(O)c1 [Gallic acid, reference compound] , I see its Antioxidant properties: Beta-carotene assay listed as +++

Lab note: measured Antioxidant properties: Beta-carotene assay of COc1ccc(C=O)cc1O [Isovanilline, 3-hydroxy-4-methoxy-benzaldehyde] was ±

Lab note: measured Antioxidant properties: Beta-carotene assay of CCCOC(=O)c1cc(O)c(O)c(O)c1 [Propylgallate, propyl gallate, reference compound] was +++

// COc1cc(C(=O)O)ccc1O [Vanillic acid, 4-hydroxy-3-methoxy-benzoic acid] : Antioxidant properties: Beta-carotene assay value = ±

The recorded Antioxidant properties: Beta-carotene assay for entry CCOc1ccccc1O [Guaiethol, 2-ethoxyphenol] equals ++

In plain terms, COc1cc(C=O)ccc1O [Vanillin, 4-hydroxy-3-methoxy-benzaldehyde] has a documented Antioxidant properties: Beta-carotene assay of −

In plain terms, COc1ccccc1O [Guaiacol, 2-methoxyphenol] has a documented Antioxidant properties: Beta-carotene assay of ++

Below: the item to evaluate.
Antioxidant properties: Beta-carotene assay reading for Cc1cc(C(C)(C)C)c(O)c(C(C)(C)C)c1 [BHT, di-tert-butylated hydroxytoluene, reference compound] : +++

Just for reference, patent US8679526B2 is where these values come from.
